# TARGET: T1, hHER3 full length (human, UniProt P21860 20-1342)
# T1 construct: On transfected CHO, CHO HER2/HER3, CHO EGFR/HER3 or CHO Flp-In cells; endogenous HER3 of MCF-7 and MDA-MB468 cells in the signalling assays; also called human HER3
# EXPERIMENT_NOTES: FACS, 400 nM, competitor 17C08-biotin
Let's look at some binders and their measured % competition.
Dear colleague, please return just the value in %, with no unit written.

Dear colleague, I am looking for the recorded % competition of the following binder: 21F06 (VHH, c-myc, His6-tagged form as expressed; also called 21F6; HER3MS21F06) VHH: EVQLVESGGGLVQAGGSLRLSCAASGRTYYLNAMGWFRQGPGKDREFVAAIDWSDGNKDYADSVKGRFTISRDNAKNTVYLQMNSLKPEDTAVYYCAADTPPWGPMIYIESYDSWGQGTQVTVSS
9

Dear colleague, I am looking for the recorded % competition of the following binder: 18E08 (VHH) VHH: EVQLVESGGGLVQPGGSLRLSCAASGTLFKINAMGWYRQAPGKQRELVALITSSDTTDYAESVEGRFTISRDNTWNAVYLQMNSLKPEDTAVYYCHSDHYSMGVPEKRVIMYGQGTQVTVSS
63
